# Tested on: HIV (HTLV-III B strain)
# Assay Comment: HIV replication inhibition assay (MTT, MT-4 cells)
# Assay type: cell-based
# Condition Notes: Human immunodeficiency virus 1, MT4, 96 h, Table A-2, four days
Listed below: EC50 values for each entry.

# Input Smiles, Readout Unit, EC50
rows = [
    ("Cc1ccc(-c2c(C)c3c(c(C)c2[C@H](OC(C)(C)C)C(=O)O)NS(=O)(=O)Cc2cc(F)ccc2-3)cc1", "nM", 4.2),
    ("Cc1ccc(-c2c(C)c3c(c(C)c2[C@H](OC(C)(C)C)C(=O)O)N(S(C)(=O)=O)Cc2c-3ccc3cccnc23)cc1", "nM", 2.9),
    ("Cc1ccc(-c2c(C)c3c(c(C)c2[C@H](OC(C)(C)C)C(=O)O)NS(=O)(=O)Cc2ccc(F)cc2-3)cc1", "nM", 9.8),
    ("Cc1ccc(-c2c([C@H](OC(C)(C)C)C(=O)O)c(C)c3nc(O)c4cc5ccsc5nc4c3c2C)cc1", "nM", 17),
]
